# TGT: furin, P09958
# Sequence (P09958 whole entry): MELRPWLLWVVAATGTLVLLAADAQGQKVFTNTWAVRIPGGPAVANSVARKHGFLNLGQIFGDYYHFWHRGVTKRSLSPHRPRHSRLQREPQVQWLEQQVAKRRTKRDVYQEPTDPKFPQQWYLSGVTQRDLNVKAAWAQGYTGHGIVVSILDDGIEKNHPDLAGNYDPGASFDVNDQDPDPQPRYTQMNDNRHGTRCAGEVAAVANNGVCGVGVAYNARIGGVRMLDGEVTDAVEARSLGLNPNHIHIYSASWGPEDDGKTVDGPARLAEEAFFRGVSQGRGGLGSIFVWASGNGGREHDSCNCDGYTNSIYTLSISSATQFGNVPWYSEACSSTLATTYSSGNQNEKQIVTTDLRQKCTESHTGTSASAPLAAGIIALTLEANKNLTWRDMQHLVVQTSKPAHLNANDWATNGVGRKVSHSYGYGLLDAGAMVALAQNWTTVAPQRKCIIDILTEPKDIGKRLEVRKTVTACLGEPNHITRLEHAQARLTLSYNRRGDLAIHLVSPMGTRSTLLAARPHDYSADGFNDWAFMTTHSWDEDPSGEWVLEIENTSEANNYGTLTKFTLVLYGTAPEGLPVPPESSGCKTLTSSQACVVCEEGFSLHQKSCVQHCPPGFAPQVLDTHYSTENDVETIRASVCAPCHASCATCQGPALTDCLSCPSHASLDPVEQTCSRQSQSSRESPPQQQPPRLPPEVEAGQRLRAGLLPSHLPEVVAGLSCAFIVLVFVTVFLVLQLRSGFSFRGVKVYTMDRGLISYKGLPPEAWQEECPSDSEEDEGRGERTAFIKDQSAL
# MEASUREMENT NOTES: furin cleavage Z-score vs untreated control; higher = more cleavage, active = 3.5 or more, inactive = 1 or less, 8 variable residues between constant flanks;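 further: purified furin at 1:10 enzyme:substrate in 50 mM HEPES pH 7.5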
# TEST SETTINGS: 30 min
The list shows a part of the results. The true hit rate is not given.
Examples of sequences with documented furin cleavage Z-score follow.
PROPERTY: furin cleavage Z-score

1) CAVVCCSMSKAGNASASA [HC2094] :: -1.3 (inactive)
2) CARRRRSGADAGNASASA [FS-2081] :: 0.709 (inactive)
3) CAYVPCHRPSAGNASASA [HC2309] :: 0.069 (inactive)
4) CARPFRYKRKAGNASASA [FS-1402] :: 7.38 (active)
5) CAPRCLVDYPAGNASASA [HC463] :: -0.868 (inactive)
6) CARPYRCKIKAGNASASA [FS-3032] :: 1.6
7) CARRRRGLECAGNASASA [FS-2789] :: 7.29 (active)
